Below, each of the compounds is paired with its reported pIC50 value.
# study_target: human A2B receptor (Homo sapiens)
# Construct: expressed in transfected cells; host or cells: HEK293
# Sequence (P29275 whole entry): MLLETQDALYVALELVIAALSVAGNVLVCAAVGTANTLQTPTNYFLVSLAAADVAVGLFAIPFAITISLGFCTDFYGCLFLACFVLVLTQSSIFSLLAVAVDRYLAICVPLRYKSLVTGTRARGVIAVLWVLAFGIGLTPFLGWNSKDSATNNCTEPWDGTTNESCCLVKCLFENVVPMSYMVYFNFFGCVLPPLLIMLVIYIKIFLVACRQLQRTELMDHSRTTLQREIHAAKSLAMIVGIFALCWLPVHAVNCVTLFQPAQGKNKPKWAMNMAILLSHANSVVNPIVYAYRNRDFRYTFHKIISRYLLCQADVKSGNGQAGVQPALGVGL
# assay_summary: Functional A2B receptor activity, recombinant HEK293 cells, cAMP (HTRF), agonist NECA
# Assay type: cell-based
# test_parameters: read-out: Functional A2B receptor activity, HEK293, cAMP, IC50
pIC50: −log10 of the molar value.

- compound: "COc1nc(F)c(-c2ccc(F)cc2)c2sc(NC(=O)N3CCC4(CCOCC4)C3)nc12"
  pIC50: "> 8.00"
- compound: "COc1ncc(C2=CCOCC2)c2sc(NC(=O)N3CCC4(CCOC4)C3)nc12 (stereo not shown)"
  pIC50: "> 8.00"
- compound: "COc1ccc(-c2cnn(C)c2)c2sc(NC(=O)c3ccnc(N4CCOCC4)c3)nc12 [reference compound]"
  pIC50: "> 6.00"
- compound: "COCCNc1ncc(C(=O)Nc2nc3c(OC)ncc(C4=CCOCC4)c3s2)s1"
  pIC50: "> 8.00"
- compound: "COc1nc(F)c(C2CCOCC2)c2sc(NC(=O)N3CC[C@@]4(CCOC4)C3)nc12"
  pIC50: "> 7.00"
- compound: "COc1ncc(C2=CCOC2)c2sc(NC(=O)N3CCC4(CCOCC4)C3)nc12"
  pIC50: "> 7.00"
- compound: "COc1ncc(-c2cnn(C(C)(C)c3ccccc3)c2)c2sc(NC(=O)N3CCC4(CCOCC4)C3)nc12"
  pIC50: "> 7.00"
- compound: "COc1nc(F)c(C2CCOCC2)c2sc(NC(=O)N3CC[C@@]4(CCCOC4)C3)nc12"
  pIC50: "> 7.00"
- compound: "COc1nc(F)c(C2CCOCC2)c2sc(NC(=O)N3CCC4(CCOC4)C3)nc12 (stereo not shown)"
  pIC50: "> 7.00"
- compound: "COc1ncc(C2=CCOCC2)c2sc(NC(=O)Nc3ccc(NC(=O)CN(C)C)cc3)nc12"
  pIC50: "> 8.00"
